# shrunken log2 fold change listing for each entry below
Tested on: Escherichia coli TOP10;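 also: peptides expressed intracellularly from a pBAD plasmid library in pooled LB shake-flask culture, induced with 0.3% L-arabinose, DNA abundance read by NGS, three biological replicates, DESeq2 with apeglm shrinkage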
Assay: shrunken log2 fold change of peptide-encoding DNA abundance (4.5 h post-induction vs induction); higher = less antimicrobial activity (less host growth inhibition)
Conditions: time post-induction: 4.5 h; library: site-saturation at positions 5, 18, 19, 20

sequence: RRIRLRPPRLPRPRPRPYQCPRP
shrunken log2 fold change: -0.373
//
sequence: RRIRHRPPRLPRPRPRPHEYPRP
shrunken log2 fold change: -0.293
//
sequence: RRIRTRPPRLPRPRPRPEKMPRP
shrunken log2 fold change: 0.171
//
sequence: RRIRTRPPRLPRPRPRPRDSPRP
shrunken log2 fold change: 0.538
//
sequence: RRIRSRPPRLPRPRPRPPNRPRP
shrunken log2 fold change: 0.238
//
sequence: RRIRIRPPRLPRPRPRPEMRPRP
shrunken log2 fold change: -0.0182
//
sequence: RRIRHRPPRLPRPRPRPWYGPRP
shrunken log2 fold change: -0.779
//
sequence: RRIRERPPRLPRPRPRPAHAPRP
shrunken log2 fold change: 0.117
//
sequence: RRIRWRPPRLPRPRPRPFEHPRP
shrunken log2 fold change: -0.113
//
sequence: RRIRNRPPRLPRPRPRPVIHPRP
shrunken log2 fold change: -0.0797
//
sequence: RRIRWRPPRLPRPRPRPSDFPRP
shrunken log2 fold change: 0.0215
//
sequence: RRIRQRPPRLPRPRPRPYMSPRP
shrunken log2 fold change: -0.655
//
sequence: RRIRLRPPRLPRPRPRPQIQPRP
shrunken log2 fold change: -0.0697
//
sequence: RRIRLRPPRLPRPRPRPQVYPRP
shrunken log2 fold change: -0.11
//
sequence: RRIRWRPPRLPRPRPRPQGEPRP
shrunken log2 fold change: 0.29
//
sequence: RRIRYRPPRLPRPRPRPGRFPRP
shrunken log2 fold change: -0.0548
//
sequence: RRIRGRPPRLPRPRPRPEIVPRP
shrunken log2 fold change: 0.0103
//
sequence: RRIRLRPPRLPRPRPRPKVSPRP
shrunken log2 fold change: 0.0482
//
sequence: RRIRMRPPRLPRPRPRPQDKPRP
shrunken log2 fold change: 0.132
//
sequence: RRIRRRPPRLPRPRPRPPADPRP
shrunken log2 fold change: 0.781
//
sequence: RRIRERPPRLPRPRPRPMKKPRP
shrunken log2 fold change: 0.00499
//
sequence: RRIRCRPPRLPRPRPRPETFPRP
shrunken log2 fold change: 0.07
//
sequence: RRIRRRPPRLPRPRPRPQYLPRP
shrunken log2 fold change: -0.0489
//
sequence: RRIRKRPPRLPRPRPRPQAFPRP
shrunken log2 fold change: -0.0237
//
sequence: RRIRCRPPRLPRPRPRPMEIPRP
shrunken log2 fold change: -1.16
//
sequence: RRIRPRPPRLPRPRPRPTETPRP
shrunken log2 fold change: 0.132
//
sequence: RRIRTRPPRLPRPRPRPVEGPRP
shrunken log2 fold change: -0.194
//
sequence: RRIRYRPPRLPRPRPRPLQHPRP
shrunken log2 fold change: -0.688
//
sequence: RRIRGRPPRLPRPRPRPQNTPRP
shrunken log2 fold change: 0.0999
//
sequence: RRIRIRPPRLPRPRPRPDKMPRP
shrunken log2 fold change: -0.473
//
sequence: RRIRQRPPRLPRPRPRPWFSPRP
shrunken log2 fold change: -0.102
//
sequence: RRIRSRPPRLPRPRPRPLNNPRP
shrunken log2 fold change: -0.124
